Reported IP One EC50 by item:
- Subject of test: human angiotensin 2 type 1 receptor (human) (UniProt P30556)
- Sequence (P30556 whole entry): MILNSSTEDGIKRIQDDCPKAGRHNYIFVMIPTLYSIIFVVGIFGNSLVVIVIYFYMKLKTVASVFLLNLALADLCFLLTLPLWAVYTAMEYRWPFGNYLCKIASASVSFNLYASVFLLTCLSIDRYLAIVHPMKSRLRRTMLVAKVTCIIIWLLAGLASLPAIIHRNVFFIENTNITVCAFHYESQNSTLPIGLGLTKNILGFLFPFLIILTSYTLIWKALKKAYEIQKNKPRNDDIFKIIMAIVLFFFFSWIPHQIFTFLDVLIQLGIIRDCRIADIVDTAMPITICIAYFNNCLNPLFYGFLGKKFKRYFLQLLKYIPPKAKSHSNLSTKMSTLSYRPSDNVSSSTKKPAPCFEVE
- Assay details: cell-based or functional assay

Task: // query IP One EC50 value for entry SEQ ID NO: 5 (Sar-Arg-Val-Gly-Val-His-Pro-Gly-OH) (peptide)
Output: 0.065 µM

New cases:
Task: Name the recorded IP One EC50 for SEQ ID NO: 84 (Sar-Arg-Val-Tyr-OMTh-His-Pro-D-Ala-OH) (peptide) .
Output: > 10 µM

Task: Would you kindly share the measured IP One EC50 for SEQ ID NO: 65 (N-Me-Asp-Arg-Val-Tyr-Phe-His-Pro-NH2) (peptide) ?
Output: > 10 µM

Task: Dear colleague, I am looking for the recorded IP One EC50 of the following substance: SEQ ID NO: 3 (Sar-Arg-Val-Ile-Val-His-Pro-Ile-OH) (peptide)
Output: > 10 µM

Task: Given the entry SEQ ID NO: 30 (Sar-Arg-Val-Tyr-OMTh-His-Pro-Ala-OH) (peptide) , report its measured IP One EC50.
Output: > 10 µM

Task: What value of measured IP One EC50 is listed for SEQ ID NO: 29 (Sar-Arg-Val-OMTyr-Ile-His-Pro-Ala-OH) (peptide) ?
Output: > 10 µM

Task: For the substance SEQ ID NO: 44 (NMAla-Arg-Val-Tyr-Ile-His-Pro-D-Ala-OH) (peptide) , what IP One EC50 is on record?
Output: > 10 µM

Task: Given the substance SEQ ID NO: 6 (Sar-Arg-Val-Gly-Val-His-Pro-Gly-NH2) (peptide) , what is its reported IP One EC50?
Output: 0.11 µM

Task: Please give the measured IP One EC50 for this substance: SEQ ID NO: 8 (Sar-Arg-Val-Tyr-Val-His-Pro-Ala-NH2) (peptide)
Output: > 10 µM

Task: Could you share which IP One EC50 value was measured for SEQ ID NO: 82 (NM-D-Ala-Arg-Val-Tyr-Ile-His-Pro-D-Ala-OH) (peptide) ?
Output: > 10 µM

Task: Which IP One EC50 value belongs to SEQ ID NO: 64 (Glu-Arg-Val-Tyr-Phe-His-Pro-NH2) (peptide) ?
Output: > 10 µM

Task: Would you mind telling me what IP One EC50 value was observed for SEQ ID NO: 66 (N-Me-Glu-Arg-Val-Tyr-Phe-His-Pro-NH2) (peptide) ?
Output: > 10 µM

Task: Returns the measured IP One EC50 for the input substance. Input: SEQ ID NO: 83 (Sar-Arg-Val-Tyr-NVA-His-Pro-D-Ala-OH) (peptide)
Output: > 10 µM
